Reported pIC50 is given for each of the following compounds.
# target_or_system: Recombinant human farnesyl transferase (FTase) (Homo sapiens)
# procedure_summary: FTase fluorescence assay (farnesylation of dansyl-GCVLS peptide)
# run_conditions: recombinant human FTase 2.5 nM, Dansyl-GCVLS 85 nM, FPP 30 nM, 30° C., 50 minutes
pIC50: −log10 of the molar value.

# annotated cases, reported pIC50 shown
[2H]C([2H])([2H])n1c(=O)cc2c3cc(ccc31)[C@H](n1cnc(C)c1)c1ccc(Cl)c(c1)COc1cccc-2c1 [(S)-77]; 7.00 to 8.00
Cn1cncc1[C@]1(O)c2ccc(Cl)c(c2)OCCc2cccc(c2)-c2cc(=O)n(C3CC3)c3ccc1cc23 (racemic) [(R)-29]; < 7.00
Cn1cncc1C1(O)c2ccc(Br)c(c2)COc2cccc(c2)-c2nccc3ccc1cc23 (stereo not shown) [Compound 84]; 7.00 to 8.00

Task: Give the reported value of pIC50 for this record: Cn1cncc1[C@]1(O)c2ccc(Cl)c(c2)OCCc2cccc(c2)-c2cc(=O)[nH]c3ccc1cc23 (racemic) [(R)-25]
Output: < 7.00

====

# target_or_system: Recombinant human farnesyl transferase (FTase) (Homo sapiens)
# procedure_summary: FTase fluorescence assay (farnesylation of dansyl-GCVLS peptide)
# run_conditions: recombinant human FTase 2.5 nM, Dansyl-GCVLS 85 nM, FPP 30 nM, 30° C., 50 minutes
# Description: T24/83 cell line was purchased from the European Collection of Authenticated Cell Cultures (Salisbury, UK). Recombinant human farnesyl transferase (FTase) and geranylgeranyl transferase type-1 (GGTase) were obtained from Crelux (Martinsried, Germany). […] The inhibition activities of the compounds disclosed herein against Ftase and GGTase were measured in the respective fluorescence assays as follows: […]
pIC50: −log10 of the molar value.
measured_endpoint: pIC50

[2H]C([2H])([2H])n1c(=O)cc2c3cc(ccc31)[C@](O)(c1cncn1C)c1ccc(Cl)c(c1)OCCc1cccc-2c1 (racemic) [(R)-28]; < 7.00
COc1cc2c3cc(ccc3n1)C(O)(c1cncn1C)c1cccc(c1)COc1cccc-2c1 (stereo not drawn) [Compound 40]; < 7.00
COc1cc2c3cc(ccc3n1)C(O)(c1cncn1C)c1ccc(Cl)c(c1)OCc1cccc-2c1 (stereo not drawn) [Compound 12]; < 7.00
Cn1cncc1C1(O)c2ccc(Cl)c(c2)OCCc2cccc(c2)-c2cc(=O)n(C)c3ccc1cc23 (stereo not drawn) [Compound 26]; 7.00 to 8.00

Task: Give the reported value of pIC50 for this record: Cn1cncc1[C@@]1(N)c2ccc(C#N)c(c2)OCc2cccc(c2)-c2cc(C#N)nc3ccc1cc23 [(S)-21]
Output: ≥ 8.00

Task: Give the reported value of pIC50 for this record: Cn1cncc1[C@@]1(N)c2ccc(C#N)c(c2)COc2cccc(c2)-c2cc(=O)n(CC(O)CO)c3ccc1cc23 (stereo partly drawn) [(S)-69]
Output: ≥ 8.00

Task: Give the reported value of pIC50 for this record: Cn1cncc1[C@]1(N)c2ccc(C#N)c(c2)OCc2cccc(c2)-c2cc(C#N)nc3ccc1cc23 (racemic) [(R)-21]
Output: < 7.00

Task: Give the reported value of pIC50 for this record: Cn1cncc1[C@]1(N)c2ccc(C#N)c(c2)COc2cccc(c2)-c2cc(C#N)nc3ccc1cc23 (racemic) [(R)-58]
Output: 7.00 to 8.00

Task: Give the reported value of pIC50 for this record: COc1cc2c3cc(ccc3n1)C(O)(c1cncn1C)c1ccc(Cl)c(c1)CCOc1cccc-2c1 (stereo not drawn) [Compound 64]
Output: < 7.00

Task: Give the reported value of pIC50 for this record: Cn1cncc1[C@@]1(N)c2ccc(Cl)c(c2)COc2cccc(c2)-c2cc(C#N)nc3ccc1cc23 [(S)-48]
Output: ≥ 8.00

Task: Give the reported value of pIC50 for this record: Cn1cncc1C1(N)c2ccc(Br)c(c2)COc2cccc(c2)-c2cc(Cl)nc3ccc1cc23 (stereo not drawn) [Compound 74]
Output: 7.00 to 8.00

Task: Give the reported value of pIC50 for this record: Cn1cncc1[C@]1(N)c2ccc(C#N)c(c2)COc2cccc(c2)-c2nccc3ccc1cc23 [(R)-86]
Output: < 7.00

Task: Give the reported value of pIC50 for this record: Cn1cncc1C1(O)c2cccc(c2)CCOc2cccc(c2)-c2cc(=O)n(C)c3ccc1cc23 (stereo not drawn) [Compound 63]
Output: 7.00 to 8.00

Task: Give the reported value of pIC50 for this record: Cn1cncc1C1(O)c2cccc(c2)OCCc2cccc(c2)-c2cc(=O)n(C)c3ccc1cc23 (stereo not drawn) [Compound 23]
Output: ≥ 8.00

Task: Give the reported value of pIC50 for this record: Cn1cncc1[C@]1(N)c2ccc(Cl)c(c2)CCc2cccc(c2)-c2cc(=O)n(C)c3ccc1cc23 (racemic) [(R)-4]
Output: < 7.00
